The measurements presented in this section are drawn from patent US9187458B2.

Tested on: BT-474 cells
test summary: BT-474 Cell Growth Inhibition Test (SRB Assay)
Assay type: cell-based, human
condition summary: Homo sapiens, BT-474, 70 h, compound 1 μM, 70 h incubation, read-out: Growth Inhibition Ratio (%)
Entry flag: Yes if inhibition at 1 µM reaches 80%; No if it does not.

Query string: Confirm if inhibition at 1 µM reported for the molecule N#Cc1cnc2cc(O[C@H]3CCOC3)c(NC(=O)/C=C/CN3CCOCC3)cc2c1Nc1ccc(OCc2cccc(F)c2)c(Cl)c1 [Example 173] is 80% or above.
Result string: No

---

Test system: BT-474 cells
test summary: BT-474 Cell Growth Inhibition Test (SRB Assay)
Type: cell-based, human
condition summary: Homo sapiens, BT-474, 70 h, compound 1 μM, 70 h incubation, read-out: Growth Inhibition Ratio (%)
assay endpoint: inhibition at 1 µM

| compound | inhibition at 1 µM |
| --- | --- |
| CN(C)C/C=C/C(=O)Nc1cc2c(Nc3ccc(OCc4cccc(F)c4)c(Cl)c3)c(C#N)cnc2cc1OC1CCOC1 (mixture of isomers) | 78% |
| Cc1ccccc1COc1ccc(Nc2c(C#N)cnc3cc(O[C@H]4CCOC4)c(NC(=O)/C=C/CN(C)C)cc23)cc1Cl | 69% |
| CN(C)C/C=C/C(=O)Nc1cc2c(Nc3ccc(OCc4cccc(F)c4)c(Cl)c3)c(C#N)cnc2cc1O[C@H]1CCOC1 | 82% |
| CN(C)C/C=C/C(=O)Nc1cc2c(Nc3ccc(OCc4ccccn4)c(Cl)c3)c(C#N)cnc2cc1O[C@H]1CCOC1 | 82% |
| CN(C)C/C=C/C(=O)Nc1cc2c(Nc3ccc(F)c(Cl)c3)c(C#N)cnc2cc1O[C@H]1CCOC1 | 89% |

Query string: Suppose we examine the compound "CN(C)C/C=C/C(=O)Nc1cc2c(Nc3cccc(Br)c3)c(C#N)cnc2cc1O[C@H]1CCOC1" ; what inhibition at 1 µM value has been reported?
Result string: 70%

Query string: Suppose we examine the compound "CN(C/C=C/C(=O)Nc1cc2c(Nc3ccc(OCc4cccc(F)c4)c(Cl)c3)c(C#N)cnc2cc1O[C@H]1CCOC1)CCO" ; what inhibition at 1 µM value has been reported?
Result string: 78%

---

System: NCI-H358 cells
test summary: NCI-H358 Cell Growth Inhibition Test (MTT Assay)
Type: cell-based
condition summary: Homo sapiens, 72 h incubation
The reader will find reported pIC50 values listed item by item below.
Schema: pIC50 number; meaning minus log10 of the concentration expressed in molar units.

Some compounds with recorded pIC50:
| compound | measurement target | pIC50 |
| --- | --- | --- |
| CN(C)C/C=C/C(=O)Nc1cc2c(Nc3ccc(OCc4ccccn4)c(Cl)c3)c(C#N)cnc2cc1O[C@H]1CCOC1 [Example 138] | NCI-H358 cells | 7.27 |
| C#Cc1cccc(Nc2c(C#N)cnc3cc(O[C@H]4CCOC4)c(NC(=O)/C=C/CN(CCO)CCO)cc23)c1 [Example 188] | NCI-H358 cells | 6.96 |

Query compound follows.
Query string: What measured pIC50 is associated with CC(C)(C)NC/C=C/C(=O)Nc1cc2c(Nc3ccc(OCc4ccccn4)c(Cl)c3)c(C#N)cnc2cc1O[C@H]1CCOC1 [Example 153] on NCI-H358 cells?
Result string: 7.11

---

The reader will find reported pEC50 values listed item by item below.
measurement target: Her2 kinase (Homo sapiens)
Construct: purchased Cell Signaling Tech #7382
Sequence (P04626 676-1255 limits assumed): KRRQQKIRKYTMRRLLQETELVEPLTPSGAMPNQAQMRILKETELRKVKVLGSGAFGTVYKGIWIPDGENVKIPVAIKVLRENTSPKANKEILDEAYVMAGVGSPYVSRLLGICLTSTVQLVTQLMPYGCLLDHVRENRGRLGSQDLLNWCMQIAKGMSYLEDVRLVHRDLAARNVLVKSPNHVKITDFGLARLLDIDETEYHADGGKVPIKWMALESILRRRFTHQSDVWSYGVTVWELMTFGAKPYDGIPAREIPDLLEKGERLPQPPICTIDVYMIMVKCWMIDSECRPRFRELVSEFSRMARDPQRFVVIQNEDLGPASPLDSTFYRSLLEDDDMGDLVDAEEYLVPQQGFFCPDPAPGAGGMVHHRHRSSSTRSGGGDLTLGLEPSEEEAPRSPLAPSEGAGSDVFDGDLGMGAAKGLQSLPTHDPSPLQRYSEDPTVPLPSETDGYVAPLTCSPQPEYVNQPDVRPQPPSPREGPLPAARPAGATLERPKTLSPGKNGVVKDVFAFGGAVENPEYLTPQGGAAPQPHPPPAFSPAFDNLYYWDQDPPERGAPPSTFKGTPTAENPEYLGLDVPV
test summary: Inhibition Activity Assay on Her2 Enzyme (ELISA, PGT substrate)
Assay type: biochemical
condition summary: 8 min at 4° C., read-out: Inhibition Activity (EC50) on Her-2
Schema: pEC50 number; meaning minus log10 of the concentration expressed in molar units.

| molecule | recorded number |
| --- | --- |
| CN(C)C/C=C/C(=O)Nc1cc2c(Nc3ccc(OCc4ccccn4)c(Cl)c3)c(C#N)cnc2cc1O[C@H]1CCOC1 | 6.61 |

Query string: Suppose we examine the molecule CN(C)C/C=C/C(=O)Nc1cc2c(Nc3ccc(F)c(Cl)c3)c(C#N)cnc2cc1OC1CCOC1 (stereo not shown) ; what pEC50 value has been reported?
Result string: 6.79

Query string: Suppose we examine the molecule C#Cc1cccc(Nc2c(C#N)cnc3cc(OC4CCOC4)c(NC(=O)/C=C/CN(C)C)cc23)c1 (stereo not shown) ; what pEC50 value has been reported?
Result string: 7.02

Query string: Suppose we examine the molecule CN(C)C/C=C/C(=O)Nc1cc2c(Nc3ccc(OCc4ccccn4)c(Cl)c3)c(C#N)cnc2cc1OC1CCOC1 (stereo not shown) ; what pEC50 value has been reported?
Result string: 6.63

---

Test system: BT-474 cells
test summary: BT-474 Cell Growth Inhibition Test (SRB Assay)
Assay type: cell-based, human
condition summary: Homo sapiens, BT-474, 70 h, compound 1 μM, 70 h incubation, read-out: Growth Inhibition Ratio (%)
assay endpoint: inhibition at 1 µM (%)
Give your result in % as a bare value.

Query string: Suppose we examine the compound "N#Cc1cnc2cc(O[C@H]3CCOC3)c(NC(=O)/C=C/CN(CCO)CCO)cc2c1Nc1ccc(F)c(Cl)c1" ; what inhibition at 1 µM value has been reported?
Result string: 85

Query string: Suppose we examine the compound CN(C)C/C=C/C(=O)Nc1cc2c(Nc3ccc(OCc4ccccc4C#N)c(Cl)c3)c(C#N)cnc2cc1OC1CCOC1 (stereo not shown) ; what inhibition at 1 µM value has been reported?
Result string: 75

Query string: Suppose we examine the compound "C#Cc1cccc(Nc2c(C#N)cnc3cc(O[C@H]4CCOC4)c(NC(=O)/C=C/CN(CC)CC)cc23)c1" ; what inhibition at 1 µM value has been reported?
Result string: 87

Query string: Suppose we examine the compound "N#Cc1cnc2cc(O[C@H]3CCOC3)c(NC(=O)/C=C/CN3CCCCC3)cc2c1Nc1ccc(OCc2ccccn2)c(Cl)c1" ; what inhibition at 1 µM value has been reported?
Result string: 80

---

Tested on: BT-474 cells
test summary: BT-474 Cell Growth Inhibition Test (SRB Assay)
Format: cell-based, human
condition summary: Homo sapiens, BT-474, 70 h, compound 1 μM, 70 h incubation, read-out: Growth Inhibition Ratio (%)
assay endpoint: inhibition at 1 µM (%)
Give your result in % as a bare value.

Some compounds with recorded inhibition at 1 µM:
| compound | assay endpoint | recorded number |
| --- | --- | --- |
| C#Cc1cccc(Nc2c(C#N)cnc3cc(O[C@H]4CCOC4)c(NC(=O)/C=C/CNCc4ccccc4)cc23)c1 | inhibition at 1 µM | 75 |
| CN(C)C/C=C/C(=O)Nc1cc2c(Nc3ccc(OCc4ccccc4C#N)c(Cl)c3)c(C#N)cnc2cc1O[C@H]1CCOC1 | inhibition at 1 µM | 80 |
| C#Cc1cccc(Nc2c(C#N)cnc3cc(OC4CCOC4)c(NC(=O)/C=C/CN(C)C)cc23)c1 (mixture of isomers) | inhibition at 1 µM | 87 |

Query string: Suppose we examine the compound "N#Cc1cnc2cc(O[C@H]3CCOC3)c(NC(=O)/C=C/CNCCCCCCO)cc2c1Nc1ccc(F)c(Cl)c1" ; what inhibition at 1 µM value has been reported?
Result string: 75

Query string: Suppose we examine the compound "N#Cc1cnc2cc(O[C@H]3CCOC3)c(NC(=O)/C=C/CN3CCOCC3)cc2c1Nc1ccc(OCc2ccccn2)c(Cl)c1" ; what inhibition at 1 µM value has been reported?
Result string: 78

Query string: Suppose we examine the compound "N#Cc1cnc2cc(O[C@H]3CCOC3)c(NC(=O)/C=C/CN3CCCCC3)cc2c1Nc1ccc(F)c(Cl)c1" ; what inhibition at 1 µM value has been reported?
Result string: 80

Query string: Suppose we examine the compound "CCN(CC)C/C=C/C(=O)Nc1cc2c(Nc3ccc(OCc4cccc(F)c4)c(Cl)c3)c(C#N)cnc2cc1O[C@H]1CCOC1" ; what inhibition at 1 µM value has been reported?
Result string: 84

Query string: Suppose we examine the compound "COCCN(C)C/C=C/C(=O)Nc1cc2c(Nc3ccc(OCc4ccccn4)c(Cl)c3)c(C#N)cnc2cc1O[C@H]1CCOC1" ; what inhibition at 1 µM value has been reported?
Result string: 80

Query string: Suppose we examine the compound "C#Cc1cccc(Nc2c(C#N)cnc3cc(O[C@H]4CCOC4)c(NC(=O)/C=C/CN(C)CCOC)cc23)c1" ; what inhibition at 1 µM value has been reported?
Result string: 85
